- System: DU-145 multicell spheroids with HUVEC/MSC, viability
- test.method.notes: Anticancer human tumor DU-145 cell line growth inhibition [IpAb];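 further: spheroids exposed to agents for seven days before measurement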
- applied.conditions: curve of first compound; second compound 0.0316 µM
pIC50: −log10 of the molar value.
Assign class by pIC50: not lower than 7 means Condition met; lower than 7 means Condition not met.

{"columns": ["compound", "category.label"],
 "data": [
  ["CC(C)n1nc(-c2ccc3oc(N)nc3c2)c2c(N)ncnc21 + CCN1CCN(Cc2ccc(Nc3ncc(F)c(-c4cc(F)c5nc(C)n(C(C)C)c5c4)n3)nc2)CC1", "Condition met"],
  ["COc1c(OCCCN2CCOCC2)ccc2c3n(c(=NC(=O)c4cnc(N)nc4)nc12)CCN3 + CCN1CCN(Cc2ccc(Nc3ncc(F)c(-c4cc(F)c5nc(C)n(C(C)C)c5c4)n3)nc2)CC1", "Condition met"],
  ["C=CC(=O)N1CCN(c2nc(=O)n(-c3c(C)ccnc3C(C)C)c3nc(-c4c(O)cccc4F)c(F)cc23)C(C)C1 (stereo not drawn) + CCN1CCN(Cc2ccc(Nc3ncc(F)c(-c4cc(F)c5nc(C)n(C(C)C)c5c4)n3)nc2)CC1", "Condition not met"],
  ["Cn1cnc2c(F)c(Nc3ccc(Br)cc3Cl)c(C(=O)NOCCO)cc21 + CCN1CCN(Cc2ccc(Nc3ncc(F)c(-c4cc(F)c5nc(C)n(C(C)C)c5c4)n3)nc2)CC1", "Condition not met"],
  ["Cn1nccc1Nc1nccc(-c2ccn(C(CO)c3ccc(Cl)c(F)c3)c(=O)c2)n1 (stereo not drawn) + CCN1CCN(Cc2ccc(Nc3ncc(F)c(-c4cc(F)c5nc(C)n(C(C)C)c5c4)n3)nc2)CC1", "Condition not met"],
  ["CC1(C)CCC(CN2CCN(c3ccc(C(=O)NS(=O)(=O)c4ccc(NCC5CCOCC5)c([N+](=O)[O-])c4)c(Oc4cnc5[nH]ccc5c4)c3)CC2)=C(c2ccc(Cl)cc2)C1 + CCN1CCN(Cc2ccc(Nc3ncc(F)c(-c4cc(F)c5nc(C)n(C(C)C)c5c4)n3)nc2)CC1", "Condition not met"],
  ["Cn1ncnc1[C@H]1c2n[nH]c(=O)c3cc(F)cc(c23)N[C@@H]1c1ccc(F)cc1 + CCN1CCN(Cc2ccc(Nc3ncc(F)c(-c4cc(F)c5nc(C)n(C(C)C)c5c4)n3)nc2)CC1", "Condition not met"],
  ["CC(=O)c1c(C)c2cnc(Nc3ccc(N4CCNCC4)cn3)nc2n(C2CCCC2)c1=O + CCN1CCN(Cc2ccc(Nc3ncc(F)c(-c4cc(F)c5nc(C)n(C(C)C)c5c4)n3)nc2)CC1", "Condition not met"],
  ["CCCS(=O)(=O)Nc1ccc(F)c(C(=O)c2c[nH]c3ncc(-c4ccc(Cl)cc4)cc23)c1F + CCN1CCN(Cc2ccc(Nc3ncc(F)c(-c4cc(F)c5nc(C)n(C(C)C)c5c4)n3)nc2)CC1", "Condition not met"]
]}

* * *

- Test system: DU-145 multicell spheroids with HUVEC/MSC, viability
- test.method.notes: Anticancer human tumor DU-145 cell line growth inhibition [IpAb];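 further: spheroids exposed to agents for seven days before measurement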
- applied.conditions: curve of first compound; second compound 0.316 µM
Measured IC50, listed per entry.
assay.endpoint: IC50

{"columns": ["compound", "tested.system", "assay.endpoint", "result"],
 "data": [
  ["Cn1nccc1Nc1nccc(-c2ccn(C(CO)c3ccc(Cl)c(F)c3)c(=O)c2)n1 (stereo not drawn) + CC(C)NCC(C(=O)N1CCN(c2ncnc3c2C(C)CC3O)CC1)c1ccc(Cl)cc1", "DU-145 multicell spheroids with HUVEC/MSC, viability", "IC50", "< 31.6 nM"],
  ["C=CCn1c(=O)c2cnc(Nc3ccc(N4CCN(C)CC4)cc3)nc2n1-c1cccc(C(C)(C)O)n1 + CC(C)NCC(C(=O)N1CCN(c2ncnc3c2C(C)CC3O)CC1)c1ccc(Cl)cc1", "DU-145 multicell spheroids with HUVEC/MSC, viability", "IC50", "< 31.6 nM"],
  ["CC1(C)CCC(CN2CCN(c3ccc(C(=O)NS(=O)(=O)c4ccc(NCC5CCOCC5)c([N+](=O)[O-])c4)c(Oc4cnc5[nH]ccc5c4)c3)CC2)=C(c2ccc(Cl)cc2)C1 + CC(C)NCC(C(=O)N1CCN(c2ncnc3c2C(C)CC3O)CC1)c1ccc(Cl)cc1", "DU-145 multicell spheroids with HUVEC/MSC, viability", "IC50", "497 nM"]
]}

Data credit: PubChem BioAssay AID2060335
